- measurement.protocol: APR_HepG2_MicrotubuleCSK_72hr: Apredica 72-hour HepG2 Assay for Microtubule CSK Stabilty (AID 2282919)
- particulars: HepG2 microtubule cytoskeleton, high-content imaging, actives raise or lower the signal
- Description: APR_HepG2_72hr is a cell-based, multiplexed-readout assay that uses HepG2, a human liver cell line, with measurements taken at 72 hours after chemical dosing in a 384-well plate.APR_HepG2_MicrotubuleCSK_72hr is one of 10 assay component(s) measured or calculated from the APR_HepG2_72hr assay. […] This assay endpoint, APR_HepG2_MicrotubuleCSK_72hr, was analyzed with bidirectional fitting relative to DMSO as the negative control and baseline of activity. […]
Calls of active or inactive are those of the source. How the source made its calls: active means hit-call score of the fitted dose curve at least 0.9, where 1 is the maximum; inactive means score below 0.9.
Pick one: yes (active), no (inactive)

Field: outcome | Entry: "Oc1cc2ccccc2c2ccccc12"
yes

Write down the call the test reported for this compound. Item: "c1ccc2c(c1)Cc1ccccc1-2"
no

Field: outcome | Entry: "C[C@@H]1C[C@H]2[C@@H]3CCC4=CC(=O)C=C[C@]4(C)[C@@]3(F)[C@@H](O)C[C@]2(C)[C@@]1(O)C(=O)COP(=O)(O)O"
no

Would you mind telling me which call this test gave "CCCCCCCCOC(=O)CCCCCCCCC(=O)OCCCCCCCC" ?
no

Outcome? "O=C(O)c1ccccc1C(c1ccc(O)cc1)c1ccc(O)cc1"
no

# outcome recorded in this test, key = "CC[C@H](C)[C@@H](C(=O)O)n1sc2ccccc2c1=O"
no

Query: recorded result category for "COC(=O)CCCCC(=O)OC" in this test
no

====

- Read-out: Matrix Metallopeptidase 1 (MMP1), MMP1 (gene 4312)
- measurement.protocol: BSK_BF4T_MMP1: BioMAP Diversity Plus: BF4T Assay for Matrix Metallopeptidase 1 (MMP1) Biomarker Activity (AID 2284270)
- particulars: primary human bronchial epithelial cells with fibroblasts
The source made the active and inactive calls. The calls were made as follows: active = hit-call score of the fitted dose curve at least 0.9, where 1 is the maximum; inactive = score below 0.9.
property: AC50

Recorded AC50, per entry:
| smiles.repr | AC50 |
| --- | --- |
| FC(F)(I)C(F)(F)C(F)(F)C(F)(F)C(F)(F)C(F)(F)I | 23.4 µM (active) [middle of 5 runs] |
| NCC(F)(F)C(F)(F)C(F)(F)C(F)(F)C(F)(F)C(F)(F)C(F)(F)F | inactive |
| OCCC(F)(F)C(F)(F)C(F)(F)C(F)(F)C(F)(F)C(F)(F)C(F)(F)C(F)(F)F | inactive |
| OCCC(F)(F)C(F)(F)C(F)(F)C(F)(F)C(F)(F)C(F)(F)F | inactive |

Next, consider the following compound.
Field AC50 (entry "C=C(C)C(=O)OCCC(F)(F)C(F)(F)C(F)(F)C(F)(F)C(F)(F)C(F)(F)F" ) reads inactive

====

- Read-out: matrix metalloproteinase-10 (MMP10), MMP10 (gene 4319)
- measurement.protocol: LTEA_HepaRG_MMP10: Life Technologies and Expression Analysis (LTEA) Assay for matrix metalloproteinase-10 (MMP10) using HepaRG (AID 2283517)
- particulars: mRNA level, 48 h; actives raise or lower the signal
Activity calls are given as the source filed them. How the source made its calls: active means hit-call score of the fitted dose curve at least 0.9, where 1 is the maximum; inactive means score below 0.9.
property: AC50

| compound | meas.value |
| --- | --- |
| COc1ccc([N+](=O)[O-])cc1N | inactive |
| c1ccc2c(c1)ccc1ccccc12 | inactive |
| CCc1ccc(CCOc2ccc(CC3SC(=O)NC3=O)cc2)nc1 (configuration not stated) | 86.3 µM (active) |
| CC1=C(/C=C/C(C)=C/C=C/C(C)=C/C(=O)O)C(C)(C)CCC1 | inactive |
| COCC(C)O (configuration not stated) | inactive |

Reported AC50 of "CCCCCCCCCCCCCCCS(=O)(=O)Oc1ccccc1" : inactive

Value of AC50 reported for the compound "CCCCCCC(=O)O" is inactive

"CCCCCCCCCCCCN1CCCC1=O" has a reported AC50 of inactive
